All values here come from ChEMBL document CHEMBL5058577.

So I've got a bunch of compounds here, and I need their Population Mitotic Cells (%) values.
# Test system: U2OS
# assay name: Multiplex assay against U2OS
# Format: toxicity, cell-based
# experimental setup: human, 24 h, 1 µM, compound concentration 1 uM, replicate 2
Answers are plain numbers, in %.

compound	Population Mitotic Cells (%)
Nc1nc(CC(=O)Nc2ccc(CCNC[C@H](O)c3ccccc3)cc2)cs1 [MIRABEGRON]	41

Below are 8 compounds. Give each one its Population Mitotic Cells (%).
1. O=C(NCCNCC(O)COc1ccc(O)cc1)N1CCOCC1.O=C(NCCNCC(O)COc1ccc(O)cc1)N1CCOCC1.O=C(O)/C=C/C(=O)O (configuration not stated) [XAMOTEROL FUMARATE]
2. COc1cc(OC2CCN(C(C)=O)CC2)ccc1C(=O)N1CCC(N2C(=O)OCc3ccccc32)CC1
3. COc1ccc2[nH]c(I)c(CCNC(C)=O)c2c1 [IODOMELATONIN]
4. Cc1sc2c(c1C)C(c1ccc(Cl)cc1)=N[C@H](CC(=O)OC(C)(C)C)c1nnc(C)n1-2
5. CC(C)C[C@H](CO)Nc1nc(S[C@@H](C)c2ccccc2)nc2nc(N)sc12 [AZD-8797]
6. COc1c(Nc2ccc(S(C)(=O)=O)nc2C)ncnc1OC1CCN(C(=O)OC(C)C)CC1 [ADP-597]
7. COc1ccc2c(c1OCc1ccccc1)C[C@@H](C(=O)O)N(C(=O)C(c1ccccc1)c1ccccc1)C2 [OLODANRIGAN]
8. COC(c1ccccc1)(c1ccccc1)[C@H](Oc1nc(C)cc(C)n1)C(=O)O [AMBRISENTAN]

1. 20
2. 23
3. 20
4. 25
5. 16
6. 20
7. 44
8. 0
